// provenance: ChEMBL document CHEMBL1817616

- Tested on: HepG2
- assayMethodText: Anticancer activity against human HepG2 cells after 48 hrs by MTT assay
- Type: functional, cell-based
- recordedConditions: HepG2, 48 h
attributeMeasured: pIC50
// pIC50 here means minus log10 of the molar concentration (mol/L)

CC(=O)O[C@H]1[C@@H](n2cncn2)C[C@H]2[C@@H]3CC[C@H]4C[C@@H](N(C)Cc5ccccc5)CC[C@]4(C)[C@H]3CC[C@@]21C | 4.98
CC(=O)O[C@H]1[C@@H](n2cnc3ccccc32)C[C@H]2[C@@H]3CC[C@H]4C[C@@H](N5CCN(C)CC5)CC[C@]4(C)[C@H]3CC[C@@]21C | 4.93

[Q] Item CC(=O)O[C@H]1[C@@H](n2cncn2)C[C@H]2[C@@H]3CC[C@H]4C[C@@H](N(C)c5ccccc5)CC[C@]4(C)[C@H]3CC[C@@]21C has what recorded pIC50?
[A] 4.66

###

- Test system: SiHa
- assayMethodText: Anticancer activity against human SiHa cells after 48 hrs by MTT assay
- Format: functional, cell-based
attributeMeasured: pIC50
Entry type: numeric. Quantity: pIC50, the -log10 of concentration in molar units.

CC(=O)O[C@H]1[C@@H](n2cnc3ccccc32)C[C@H]2[C@@H]3CC[C@H]4C[C@@H](N5CCCCC5)CC[C@]4(C)[C@H]3CC[C@@]21C | 4.73
CC(=O)O[C@H]1[C@@H](n2cnc3ccccc32)C[C@H]2[C@@H]3CC[C@H]4C[C@@H](N(C)Cc5ccccc5)CC[C@]4(C)[C@H]3CC[C@@]21C | 4.92
CCN(CC)[C@H]1CC[C@@]2(C)[C@@H](CC[C@@H]3[C@@H]2CC[C@@]2(C)[C@H]3C[C@H](n3nnc4ccccc43)[C@@H]2OC(C)=O)C1 | 4.43
CC(=O)O[C@H]1[C@@H](n2nnc3ccccc32)C[C@H]2[C@@H]3CC[C@H]4C[C@@H](N(C)c5ccccc5)CC[C@]4(C)[C@H]3CC[C@@]21C | 5.01
CCN(CC)[C@H]1CC[C@@]2(C)[C@@H](CC[C@@H]3[C@@H]2CC[C@@]2(C)[C@H]3C[C@H](n3cnc4ccccc43)[C@@H]2OC(C)=O)C1 | 4.53
CC(=O)O[C@H]1[C@@H](n2cncn2)C[C@H]2[C@@H]3CC[C@H]4C[C@@H](N(C)c5ccccc5)CC[C@]4(C)[C@H]3CC[C@@]21C | 4.43
CC(=O)O[C@H]1[C@@H](n2cnc3ccccc32)C[C@H]2[C@@H]3CC[C@H]4C[C@@H](N5CCN(C)CC5)CC[C@]4(C)[C@H]3CC[C@@]21C | 4.83
CC(=O)O[C@H]1[C@@H](n2nnc3ccccc32)C[C@H]2[C@@H]3CC[C@H]4C[C@@H](N(C)Cc5ccccc5)CC[C@]4(C)[C@H]3CC[C@@]21C | 4.58

[Q] Provide value of pIC50 for this record tested with SiHa: CC(=O)O[C@H]1[C@@H](n2nnc3ccccc32)C[C@H]2[C@@H]3CC[C@H]4C[C@@H](N5CCN(C)CC5)CC[C@]4(C)[C@H]3CC[C@@]21C
[A] 4.66

###

- Test system: HepG2
- assayMethodText: Anticancer activity against human HepG2 cells after 48 hrs by MTT assay
- Assay type: functional, cell-based
- recordedConditions: HepG2, 48 h
Measured IC50 of individual entries

Example cases with answers are listed next.
CC(=O)O[C@H]1[C@@H](n2ccnn2)C[C@H]2[C@@H]3CC[C@H]4C[C@@H](N5CCN(C)CC5)CC[C@]4(C)[C@H]3CC[C@@]21C | > 50 µM
CCN(CC)[C@H]1CC[C@@]2(C)[C@@H](CC[C@@H]3[C@@H]2CC[C@@]2(C)[C@H]3C[C@H](n3nnc4ccccc43)[C@@H]2OC(C)=O)C1 | > 50 µM

[Q] Reported IC50 for CCN(CC)[C@H]1CC[C@@]2(C)[C@@H](CC[C@@H]3[C@@H]2CC[C@@]2(C)[C@H]3C[C@H](n3cncn3)[C@@H]2OC(C)=O)C1 : what is it?
[A] > 50 µM
